assay: Bioavailability study in rats (i.v. and p.o.); assay type: in vivo; details: male, SD, rat, plasma, iv, i.v. 0.3 mg/kg, 1 h
OUTCOME_MEASURE: concentration at 1 h (ng/mL)
# unit: ng/mL | format: bare number

Identify concentration at 1 h associated with the compound "CCN(Cc1ccccn1)C(=O)Cc1c(-c2ccc(Cl)c(Cl)c2)nc2cc(C)ccn12"
8.44

* * *

assay: Pharmacokinetics in rats with ABT pretreatment (intestinal and hepatic availability); conditions: rat, plasma, intravenous, 0.1 mg/kg, Plasma concentration, rats, p.o. 100 mg/kg ABT, i.v. 0.1 mg/kg YL-IPA08, 0.083 h
OUTCOME_MEASURE: concentration at 0.083 h (ng/mL)
# unit: ng/mL | format: bare number

Identify concentration at 0.083 h associated with the molecule CCN(Cc1ccccn1)C(=O)Cc1c(-c2ccc(Cl)c(Cl)c2)nc2cc(C)ccn12 [YL-IPA08]
398

* * *

test: Bioavailability study in rats (i.v. and p.o.); format: in vivo; settings: male, SD, rat, plasma, iv, i.v. 0.3 mg/kg
OUTCOME_MEASURE: half-life (h)
# unit: h | format: bare number

Identify half-life associated with the compound CCN(Cc1ccccn1)C(=O)Cc1c(-c2ccc(Cl)c(Cl)c2)nc2cc(C)ccn12 [YL-IPA08]
1.13

* * *

experiment: Bioavailability study in rats (i.v. and p.o.); type: in vivo; details: male, SD, rat, plasma, po, p.o. 1 mg/kg, 8 h
OUTCOME_MEASURE: concentration at 8 h (ng/mL)
# unit: ng/mL | format: bare number

Identify concentration at 8 h associated with the molecule "CCN(Cc1ccccn1)C(=O)Cc1c(-c2ccc(Cl)c(Cl)c2)nc2cc(C)ccn12"
0.63

* * *

assay: Bioavailability study in rats (i.v. and p.o.); assay type: in vivo; details: male, SD, rat, plasma, iv, i.v. 0.3 mg/kg, read-out: MRT(0–t)
OUTCOME_MEASURE: MRT last
Record the result as number plus unit.

Identify MRT last associated with the molecule CCN(Cc1ccccn1)C(=O)Cc1c(-c2ccc(Cl)c(Cl)c2)nc2cc(C)ccn12 [YL-IPA08]
1.36 h

* * *

assay: Bioavailability study in rats (i.v. and p.o.); format: in vivo; conditions: male, SD, rat, plasma, iv, i.v. 0.3 mg/kg, 0.033 h
OUTCOME_MEASURE: concentration at 0.033 h

Identify concentration at 0.033 h associated with the compound "CCN(Cc1ccccn1)C(=O)Cc1c(-c2ccc(Cl)c(Cl)c2)nc2cc(C)ccn12"
220 ng/mL

* * *

assay: Pharmacokinetics in rats with ABT pretreatment (intestinal and hepatic availability); details: rat, plasma, oral, Plasma concentration, rats, p.o. 100 mg/kg ABT, p.o. 1 mg/kg YL-IPA08, 0.5 h
OUTCOME_MEASURE: concentration at 0.5 h (ng/mL)
# unit: ng/mL | format: bare number

Identify concentration at 0.5 h associated with the compound "CCN(Cc1ccccn1)C(=O)Cc1c(-c2ccc(Cl)c(Cl)c2)nc2cc(C)ccn12"
370

* * *

experiment: Bioavailability study in rats (i.v. and p.o.); format: in vivo; settings: male, SD, rat, plasma, iv, i.v. 0.3 mg/kg, 6 h
OUTCOME_MEASURE: concentration at 6 h (ng/mL)
# unit: ng/mL | format: bare number

Identify concentration at 6 h associated with the molecule "CCN(Cc1ccccn1)C(=O)Cc1c(-c2ccc(Cl)c(Cl)c2)nc2cc(C)ccn12"
1.09

* * *

assay: Bioavailability study in rats (i.v. and p.o.); format: in vivo; conditions: male, SD, rat, plasma, po, p.o. 3 mg/kg, 4 h
OUTCOME_MEASURE: concentration at 4 h (ng/mL)
# unit: ng/mL | format: bare number

Identify concentration at 4 h associated with the compound "CCN(Cc1ccccn1)C(=O)Cc1c(-c2ccc(Cl)c(Cl)c2)nc2cc(C)ccn12"
3.5

* * *

assay: Pharmacokinetics in rats with ABT pretreatment (intestinal and hepatic availability); details: rat, plasma, intravenous, Plasma concentration, rats, p.o. 100 mg/kg ABT, i.v. 0.1 mg/kg YL-IPA08, 0.25 h
OUTCOME_MEASURE: concentration at 0.25 h (ng/mL)
# unit: ng/mL | format: bare number

Identify concentration at 0.25 h associated with the compound "CCN(Cc1ccccn1)C(=O)Cc1c(-c2ccc(Cl)c(Cl)c2)nc2cc(C)ccn12"
266

* * *

assay: Bioavailability study in rats (i.v. and p.o.); assay type: in vivo; settings: male, SD, rat, plasma, po, p.o. 10 mg/kg, 2 h
OUTCOME_MEASURE: concentration at 2 h (ng/mL)
# unit: ng/mL | format: bare number

Identify concentration at 2 h associated with the compound CCN(Cc1ccccn1)C(=O)Cc1c(-c2ccc(Cl)c(Cl)c2)nc2cc(C)ccn12 [YL-IPA08]
7.1

* * *

assay: Pharmacokinetics in rats with ABT pretreatment (intestinal and hepatic availability); settings: rat, plasma, oral, 1 mg/kg, Plasma concentration, rats, i.v. 50 mg/kg ABT, p.o. 1mg/kg YL-IPA08, 8 h
OUTCOME_MEASURE: concentration at 8 h
Record the result as number plus unit.

Identify concentration at 8 h associated with the compound "CCN(Cc1ccccn1)C(=O)Cc1c(-c2ccc(Cl)c(Cl)c2)nc2cc(C)ccn12"
4.51 ng/mL

* * *

test: Bioavailability study in rats (i.v. and p.o.); assay type: in vivo; details: male, SD, rat, plasma, iv, i.v. 0.3 mg/kg, 0.5 h
OUTCOME_MEASURE: concentration at 0.5 h (ng/mL)
# unit: ng/mL | format: bare number

Identify concentration at 0.5 h associated with the molecule "CCN(Cc1ccccn1)C(=O)Cc1c(-c2ccc(Cl)c(Cl)c2)nc2cc(C)ccn12"
18.2

* * *

experiment: Pharmacokinetics in rats with ABT pretreatment (intestinal and hepatic availability); conditions: rat, plasma, intravenous, Plasma concentration, rats, i.v. 50 mg/kg ABT, i.v. 0.5 mg/kg YL-IPA08, 6 h
OUTCOME_MEASURE: concentration at 6 h (ng/mL)
# unit: ng/mL | format: bare number

Identify concentration at 6 h associated with the compound "CCN(Cc1ccccn1)C(=O)Cc1c(-c2ccc(Cl)c(Cl)c2)nc2cc(C)ccn12"
10.8

* * *

test: Bioavailability study in rats (i.v. and p.o.); type: in vivo; conditions: male, SD, rat, plasma, po, p.o. 10 mg/kg, 0.5 h
OUTCOME_MEASURE: concentration at 0.5 h
Record the result as number plus unit.

Identify concentration at 0.5 h associated with the compound "CCN(Cc1ccccn1)C(=O)Cc1c(-c2ccc(Cl)c(Cl)c2)nc2cc(C)ccn12"
15.9 ng/mL

* * *

assay: Bioavailability study in rats (i.v. and p.o.); format: in vivo; settings: male, SD, rat, plasma, po, p.o. 10 mg/kg, 6 h
OUTCOME_MEASURE: concentration at 6 h
Record the result as number plus unit.

Identify concentration at 6 h associated with the compound "CCN(Cc1ccccn1)C(=O)Cc1c(-c2ccc(Cl)c(Cl)c2)nc2cc(C)ccn12"
4.39 ng/mL

* * *

experiment: Pharmacokinetics in rats with ABT pretreatment (intestinal and hepatic availability); conditions: rat, plasma, intravenous, Plasma concentration, rats, i.v. 50 mg/kg ABT, i.v. 0.5 mg/kg YL-IPA08, 2 h
OUTCOME_MEASURE: concentration at 2 h (ng/mL)
# unit: ng/mL | format: bare number

Identify concentration at 2 h associated with the compound "CCN(Cc1ccccn1)C(=O)Cc1c(-c2ccc(Cl)c(Cl)c2)nc2cc(C)ccn12"
54.8

* * *

experiment: Pharmacokinetics in rats with ABT pretreatment (intestinal and hepatic availability); conditions: rat, plasma, po, 1 mg/kg, AUC(0-∞), rats, i.v. ABT, p.o. YL-IPA08 (1 mg/kg)
OUTCOME_MEASURE: AUC(0-inf) (ng·h/mL)
# unit: ng·h/mL | format: bare number

Identify AUC(0-inf) associated with the compound "CCN(Cc1ccccn1)C(=O)Cc1c(-c2ccc(Cl)c(Cl)c2)nc2cc(C)ccn12"
188

* * *

Assay: Bioavailability study in rats (i.v. and p.o.)
Type: in vivo
Details: male, SD, rat, plasma, po, p.o. 1 mg/kg, 0.5 h
Protocol: Male SD rats (200-240 g) were obtained from Beijing Vital River Laboratory Animal Technology Co., Ltd. Animals were housed in a temperature- and humidity-controlled room with a 12 h light/dark cycle. […] Pharmacokinetic parameters were calculated by the noncompartmental method using WinNonlin 7.0 (Pharsight, CA). The area under the plasma concentration time curve (AUC) from time 0 to the last time point with a measurable concentration (AUC0-t) was calculated by trapezoidal method. […]
OUTCOME_MEASURE: concentration at 0.5 h (ng/mL)
# unit: ng/mL | format: bare number

Identify concentration at 0.5 h associated with the compound "CCN(Cc1ccccn1)C(=O)Cc1c(-c2ccc(Cl)c(Cl)c2)nc2cc(C)ccn12"
3.71
